Values compiled from the supplement of paper PMC9170038.

test system: MS2 coat protein; experiment: apparent KD of MS2 coat protein; higher = weaker reporter binding; settings: Eterna round: R107; input ligand: arginine 13.2 mM
Think of 100 nM as a floor: if apparent KD of MS2 coat protein stands on it or above, it is Criterion met; beneath it, Criterion not met.

ACGAUAGGACUUGAGGAUCACCCAGGUGAUACCAGCCUGGAAACAGGCCCUUGGCAGCACUAAUACUCCAAUAACCUAUCGAAUA [TheoAX 16 #MicroSwitchBubble #AlternativeMS2]	Criterion met
CUUAUACAUGAGGAUCACCCAUGUGGUGAUACCAGCCACGAUCAAGGCCCUUGGCAGCACAAAGGGAAUAAUAUGAUUACAAAAC [theeternabot_sameState_MS2_Theo_A_6]	Criterion met
AUUCAUGGAAACAUGACAUACAUAUCCGGUCGAGGACCGGUACGGCCGCCACUCGUUUGGAGGCACAUGAGGAUCACCCAUGUUA [SS Tryp A #8]	Criterion not met
CCGUUCUCUGCGGCCGCCACUCAAGGAGCUACAUAGCUCCUAGACAUGAGGAUCACCCAUGUCGCGAGGACCGGGUAGAUUCUCC [Same State Typptophan B GF9]	Criterion not met

**Q:** For this sequence, is measured apparent KD of MS2 coat protein 100 nM or higher? AUAACAUGAGGAUCACCCAUGUAAGCAGAUACCAGCUAGGAAACUAGCCCUUGGCAGCUGCAAGGUGAUCCUAGGUAUCUGCAAU [(M1)-(M2)-(T1)-(T2)-(M)'-(T)'_Design6]
**A:** Criterion not met
